Assay: Selectivity ratio of Kd for displacement of fluorescent tracer 5-(3-(4-((1S,5S,6S)-10-(3,5-dichlorophenylsulfonyl)-2-oxo-3-(pyridin-3-ylmethyl)-3,10-diazabicyclo[4.3.1]decan-5-yl)-1H-1,2,3-triazol-1-yl)propylcarbamoyl)-2-(6-(dimethylamino)-3-(dimethyliminio)-3H-xanthen-9-yl)benzoate from recombinant full length C-terminal FLAG-tagged FKBP12.6 (unknown origin) to Kd for displacement of fluorescent tracer 5-(3-(4-((1S,5S,6S)-10-(3,5-dichlorophenylsulfonyl)-2-oxo-3-(pyridin-3-ylmethyl)-3,10-diazabicyclo[4.3.1]decan-5-yl)-1H-1,2,3-triazol-1-yl)propylcarbamoyl)-2-(6-(dimethylamino)-3-(dimethyliminio)-3H-xanthen-9-yl)benzoate from recombinant full length C-terminal FLAG-tagged FKBP51 (unknown origin)
Categories are assigned from the measured Selectivity ratio using these intervals: L (below 2), M (2 to below 4), H (4 or more)

Smiles Code	Class Name
COc1ccc(CC[C@H]2OC(=O)[C@@H]3CCCCN3C(=O)[C@@H](C3CCCCC3)c3cc(OC)c(OC)c(c3)OCCCC(=O)COc3cccc2c3)cc1OC	L
COc1ccc(CC[C@H]2OC(=O)[C@@H]3CCCCN3C(=O)[C@@H](C3CCCCC3)c3cc(OC)c(OC)c(c3)OCCC(=O)CCOc3cccc2c3)cc1OC	M
COc1ccc(CC[C@H]2OC(=O)[C@@H]3CCCCN3C(=O)[C@@H](C3CCCCC3)c3cc(OC)c(c(OC)c3)OC/C=C/COc3cccc2c3)cc1OC	H
COc1ccc(CC[C@H]2OC(=O)[C@@H]3CCCCN3C(=O)[C@@H](C3CCCCC3)c3cc(OC)c(OC)c(c3)OCCOCCCCOc3cccc2c3)cc1OC	L
COc1ccc(CC[C@H]2OC(=O)[C@@H]3CCCCN3C(=O)[C@@H](C3CCCCC3)c3cc(OC)c(OC)c(c3)OCCC(=O)COc3cccc2c3)cc1OC	M
COc1ccc(CC[C@H]2OC(=O)[C@@H]3CCCCN3C(=O)[C@@H](C3CCCCC3)c3cc(OC)c(c(OC)c3)OCC/C=C/COc3cccc2c3)cc1OC	H
COc1ccc(CC[C@H]2OC(=O)[C@@H]3CCCCN3C(=O)[C@@H](C3CCCCC3)c3cc(OC)c(OC)c(c3)OCCOC/C=C/COc3cccc2c3)cc1OC	L
COc1ccc(CC[C@H]2OC(=O)[C@@H]3CCCCN3C(=O)[C@@H](C3CCCCC3)c3cc(OC)c(OC)c(c3)OCCCCOc3cccc2c3)cc1OC	M
COc1ccc(CC[C@H]2OC(=O)[C@@H]3CCCCN3C(=O)[C@@H](C3CCCCC3)c3cc(OC)c(c(OC)c3)OC/C=C\COc3cccc2c3)cc1OC	H
COc1ccc(CC[C@H]2OC(=O)[C@@H]3CCCCN3C(=O)[C@@H](C3CCCCC3)c3cc(OC)c(c(OC)c3)OCCCCOc3cccc2c3)cc1OC	H
COc1ccc(CC[C@H]2OC(=O)[C@@H]3CCCCN3C(=O)[C@@H](C3CCCCC3)c3cc(OC)c(OC)c(c3)OCCOC/C=C\COc3cccc2c3)cc1OC	M

###

Target: Peptidyl-prolyl cis-trans isomerase FKBP1B (Homo sapiens)
Sequence (P68106 whole entry): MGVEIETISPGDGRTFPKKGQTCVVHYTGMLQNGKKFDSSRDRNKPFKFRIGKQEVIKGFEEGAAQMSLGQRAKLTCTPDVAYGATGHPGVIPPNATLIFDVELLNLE
Assay: Displacement of fluorescent tracer 5-(3-(4-((1S,5S,6S)-10-(3,5-dichlorophenylsulfonyl)-2-oxo-3-(pyridin-3-ylmethyl)-3,10-diazabicyclo[4.3.1]decan-5-yl)-1H-1,2,3-triazol-1-yl)propylcarbamoyl)-2-(6-(dimethylamino)-3-(dimethyliminio)-3H-xanthen-9-yl)benzoate from recombinant full length C-terminal FLAG-tagged FKBP12.6 (unknown origin) expressed in Escherichia coli BL21 (DE3) cells incubated for 30 mins by fluorescence polarisation competition assay
Measured Quantity: Kd (nM)

Smiles Code	Numeric Readout
COc1ccc(CC[C@H]2OC(=O)[C@@H]3CCCCN3C(=O)[C@@H](C3CCCCC3)c3cc(OC)c(c(OC)c3)OCCCOc3cccc2c3)cc1OC	446
COc1ccc(CC[C@H]2OC(=O)[C@@H]3CCCCN3C(=O)[C@@H](C3CCCCC3)c3cc(OC)c(OC)c(c3)OCCOCCCCOc3cccc2c3)cc1OC	115
COc1cccc([C@@H](CCc2ccc(OC)c(OC)c2)OC(=O)[C@@H]2CCCCN2C(=O)[C@H](c2cc(OC)c(OC)c(OC)c2)C2CCCCC2)c1	203
COc1ccc(CC[C@H]2OC(=O)[C@@H]3CCCCN3C(=O)[C@@H](C3CCCCC3)c3cc(OC)c(OC)c(c3)OCC/C=C/COc3cccc2c3)cc1OC	709
COc1ccc(CC[C@H]2OC(=O)[C@@H]3CCCCN3C(=O)[C@@H](C3CCCCC3)c3cc(OC)c(c(OC)c3)OCC/C=C\COc3cccc2c3)cc1OC	495
COc1ccc(CC[C@H]2OC(=O)[C@@H]3CCCCN3C(=O)[C@@H](C3CCCCC3)c3cc(OC)c(OC)c(c3)OCCOC/C=C/COc3cccc2c3)cc1OC	105
